Answer each item with its documented mean percentage of metabolic activity of treated cells, HUVEC 50 μM.
Test system: HUVEC (ATCC) cell line
assay.text: Cytotoxicity, metabolic cell activity (CellTiter 96 AQueous One), HUVEC
Type: cell-based
test.conditions: compound 50 μM, two independent experiments
Experimental: Cytotoxicity was assessed in assay measuring metabolic cell activity performed on HepG2 (ATCC) and HUVEC (ATCC) cell lines according to the protocol of CellTiter 96® AQueous One Solution Cell Proliferation Assay 2018, Promega, USA, 2001. The method involved absorbance measurements after the treatment of cells with compounds at concentrations 1 μM and 50 μM. […]
Express your answer in %, writing the number without its unit.

Inquiry: Fill in the blank: the reported mean percentage of metabolic activity of treated cells, HUVEC 50 μM of COc1ccc2nccc(CCN3CCC(NCc4ccc(N(C)C)cc4)CC3)c2n1 is ____.
Reply text: 0.1

Inquiry: Fill in the blank: the reported mean percentage of metabolic activity of treated cells, HUVEC 50 μM of COc1ccc2nccc(CCN3CCC(NCc4ccc(CO)cc4)CC3)c2n1 is ____.
Reply text: 63.1

Inquiry: Fill in the blank: the reported mean percentage of metabolic activity of treated cells, HUVEC 50 μM of COc1ccc2nccc(CCN3CCC(NCc4ccc(Br)cc4)CC3)c2n1 is ____.
Reply text: −0.5

From: patent US20250197394A1
